test: in vitro; conditions: human, SH-SY5Y cells
Description: Cytotoxicity against human SH-SY5Y cells assessed as reduction in cell viability incubated for 24 hrs by crystal violet staining based analysis
assay_endpoint: IC50 at 24 h (µM)
All answers are understood in µM, so give the number only.

Which IC50 at 24 h is listed for `COc1ccccc1C(=O)N1CCC(C(=O)NCCCCCNc2c3c(nc4ccccc24)CCCC3)CC1` ?
109

Consider the molecule shown here: `O=C(NCCCCCNc1c2c(nc3ccccc13)CCCC2)C1CCN(C(=O)c2cccc(Cl)c2)CC1` What is its recorded IC50 at 24 h?
147

I am curious: what IC50 at 24 h value has been reported for `O=C(NCCCCCNc1c2c(nc3ccccc13)CCCC2)C1CCN(C(=O)c2ccccn2)CC1` ?
112

// lookup IC50 at 24 h for `COc1ccc(C(=O)N2CCC(C(=O)NCCCCCNc3c4c(nc5ccccc35)CCCC4)CC2)cc1`
149

Bench note: what IC50 at 24 h did `O=C(NCCCCCNc1c2c(nc3ccccc13)CCCC2)C1CCN(C(=O)c2ccncc2)CC1` show?
137

State the recorded IC50 at 24 h for this entry: `O=C(NCCCCCNc1c2c(nc3ccccc13)CCCC2)C1CCN(C(=O)c2ccc(Cl)cc2)CC1`
30.7

---

assay: in vitro; details: human, SH-SY5Y cells
assay_endpoint: IC50 at 24 h (µM)
Express your answer in µM, writing the number without its unit.

Suppose we examine the molecule `O=C(NCCCCCNc1c2c(nc3ccccc13)CCCC2)C1CCN(C(=O)c2ccccc2F)CC1` ; what IC50 at 24 h value has been reported?
192

Form field: reported IC50 at 24 h of `O=C(NCCCCCNc1c2c(nc3ccccc13)CCCC2)C1CCN(C(=O)c2ccccc2Cl)CC1`
186

Quick check: IC50 at 24 h of `O=C(NCCCCCNc1c2c(nc3ccccc13)CCCC2)C1CCN(C(=O)c2cccc(F)c2)CC1` ?
58

// query IC50 at 24 h value for entry `O=C(NCCCCCNc1c2c(nc3ccccc13)CCCC2)C1CCN(C(=O)c2ccccc2)CC1`
69.3

// query IC50 at 24 h value for entry `COc1cccc(C(=O)N2CCC(C(=O)NCCCCCNc3c4c(nc5ccccc35)CCCC4)CC2)c1`
93.6

---

For each entry below, report its pIC50 value.
// scale note: pIC50 = -log10(conc_M); give the bare number

Query for Acetylcholinesterase (Electrophorus electricus, UniProt O42275): what pIC50 does the record show for `COc1ccc(C(=O)N2CCC(C(=O)NCCCCCNc3c4c(nc5ccccc35)CCCC4)CC2)cc1` ?
6.65

Request: pIC50, test system Acetylcholinesterase (Electrophorus electricus, UniProt O42275), entry `COc1cccc(C(=O)N2CCC(C(=O)NCCCCCNc3c4c(nc5ccccc35)CCCC4)CC2)c1`
6.54

Lookup: pIC50 / Acetylcholinesterase (Electrophorus electricus, UniProt O42275) / `O=C(NCCCCCNc1c2c(nc3ccccc13)CCCC2)C1CCN(C(=O)c2ccccc2)CC1`
6.93

Please provide the recorded pIC50 for `O=C(NCCCCCNc1c2c(nc3ccccc13)CCCC2)C1CCN(C(=O)c2cccc(F)c2)CC1` , tested on Acetylcholinesterase (Electrophorus electricus, UniProt O42275).
Sequence (O42275 whole entry): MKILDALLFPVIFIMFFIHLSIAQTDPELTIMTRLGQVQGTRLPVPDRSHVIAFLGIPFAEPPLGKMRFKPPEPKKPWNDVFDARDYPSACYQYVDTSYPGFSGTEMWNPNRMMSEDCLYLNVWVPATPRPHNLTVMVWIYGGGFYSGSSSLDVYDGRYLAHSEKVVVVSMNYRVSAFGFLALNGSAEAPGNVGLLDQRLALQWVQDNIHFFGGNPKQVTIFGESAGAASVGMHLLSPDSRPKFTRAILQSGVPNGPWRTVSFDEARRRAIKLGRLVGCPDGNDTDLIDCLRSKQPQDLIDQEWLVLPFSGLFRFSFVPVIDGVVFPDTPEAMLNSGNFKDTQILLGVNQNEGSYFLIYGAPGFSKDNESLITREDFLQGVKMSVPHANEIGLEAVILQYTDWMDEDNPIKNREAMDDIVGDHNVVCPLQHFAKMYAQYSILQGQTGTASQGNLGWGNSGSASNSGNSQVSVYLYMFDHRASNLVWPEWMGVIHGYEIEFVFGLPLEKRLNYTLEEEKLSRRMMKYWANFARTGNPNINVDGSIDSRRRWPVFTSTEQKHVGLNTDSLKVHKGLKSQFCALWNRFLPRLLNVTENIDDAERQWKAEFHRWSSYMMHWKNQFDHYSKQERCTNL
6.86

Look up pIC50 with Acetylcholinesterase (Electrophorus electricus, UniProt O42275) for this compound: `O=C(NCCCCCNc1c2c(nc3ccccc13)CCCC2)C1CCN(C(=O)c2ccccc2Cl)CC1`
6.81

Notebook entry, Acetylcholinesterase (Electrophorus electricus, UniProt O42275) assay: pIC50 of `O=C(NCCCCCNc1c2c(nc3ccccc13)CCCC2)C1CCN(C(=O)c2ccc(Cl)cc2)CC1` = ?
6.35

So what pIC50 did `O=C(NCCCCCNc1c2c(nc3ccccc13)CCCC2)C1CCN(C(=O)c2cccnc2)CC1` get with Acetylcholinesterase (Electrophorus electricus, UniProt O42275)?
6.79

Value wanted: pIC50 (Acetylcholinesterase (Electrophorus electricus, UniProt O42275)) of entry `O=C(NCCCCCNc1c2c(nc3ccccc13)CCCC2)C1CCN(C(=O)c2ccccn2)CC1`
6.34

Find the measured pIC50: item `O=C(NCCCCCNc1c2c(nc3ccccc13)CCCC2)C1CCN(C(=O)c2ccccc2F)CC1` , target or system Acetylcholinesterase (Electrophorus electricus, UniProt O42275).
6.62

---

assay: Selectivity index, ratio of IC50 for cytotoxicity against human SH-SY5Y cells to IC50 for inhibition of equine serum BuChE
assay_endpoint: Ratio IC50
Response field accepts a number only; no unit should be typed.

Need Ratio IC50 of `O=C(NCCCCCNc1c2c(nc3ccccc13)CCCC2)C1CCN(C(=O)c2cccc(F)c2)CC1` , thanks.
789

For the molecule `O=C(NCCCCCNc1c2c(nc3ccccc13)CCCC2)C1CCN(C(=O)c2ccc(Cl)cc2)CC1` , what Ratio IC50 is on record?
268.5

What Ratio IC50 value was documented for this molecule, `COc1ccc(C(=O)N2CCC(C(=O)NCCCCCNc3c4c(nc5ccccc35)CCCC4)CC2)cc1` ?
605.3

Look up Ratio IC50: `O=C(NCCCCCNc1c2c(nc3ccccc13)CCCC2)C1CCN(C(=O)c2ccccc2)CC1`
1490.3

I'd like to know its Ratio IC50. The molecule in question is `O=C(NCCCCCNc1c2c(nc3ccccc13)CCCC2)C1CCN(C(=O)c2ccccn2)CC1`
347.1

---

test: Selectivity index, ratio of IC50 for cytotoxicity against human SH-SY5Y cells to IC50 for inhibition of equine serum BuChE
Classification field: enter y for Ratio IC50 values not below 2000, n for values below it.

Does the reported Ratio IC50 for `COc1cccc(C(=O)N2CCC(C(=O)NCCCCCNc3c4c(nc5ccccc35)CCCC4)CC2)c1` fall at or above the 2000 mark?
n

Determine whether this compound has Ratio IC50 no lower than 2000: `O=C(NCCCCCNc1c2c(nc3ccccc13)CCCC2)C1CCN(C(=O)c2cccc(Cl)c2)CC1`
y

Is the recorded value of Ratio IC50 equal to or greater than 2000 for this compound? `COc1ccccc1C(=O)N1CCC(C(=O)NCCCCCNc2c3c(nc4ccccc24)CCCC3)CC1`
y

Identify whether the reported Ratio IC50 of the following compound is 2000 or greater: `O=C(NCCCCCNc1c2c(nc3ccccc13)CCCC2)C1CCN(C(=O)c2ccccc2Cl)CC1`
y

For this compound, is measured Ratio IC50 2000 or higher? `O=C(NCCCCCNc1c2c(nc3ccccc13)CCCC2)C1CCN(C(=O)c2ccncc2)CC1`
n

---

target: Cholinesterase (Equus caballus, UniProt P81908); test: Inhibition of equine serum BuChE using butyrylthiocholine iodide as substrate preincubated for 10 mins followed by substrate addition and measured every min for 10 mins by DTNB based Ellman's assay
Sequence (P81908 whole entry): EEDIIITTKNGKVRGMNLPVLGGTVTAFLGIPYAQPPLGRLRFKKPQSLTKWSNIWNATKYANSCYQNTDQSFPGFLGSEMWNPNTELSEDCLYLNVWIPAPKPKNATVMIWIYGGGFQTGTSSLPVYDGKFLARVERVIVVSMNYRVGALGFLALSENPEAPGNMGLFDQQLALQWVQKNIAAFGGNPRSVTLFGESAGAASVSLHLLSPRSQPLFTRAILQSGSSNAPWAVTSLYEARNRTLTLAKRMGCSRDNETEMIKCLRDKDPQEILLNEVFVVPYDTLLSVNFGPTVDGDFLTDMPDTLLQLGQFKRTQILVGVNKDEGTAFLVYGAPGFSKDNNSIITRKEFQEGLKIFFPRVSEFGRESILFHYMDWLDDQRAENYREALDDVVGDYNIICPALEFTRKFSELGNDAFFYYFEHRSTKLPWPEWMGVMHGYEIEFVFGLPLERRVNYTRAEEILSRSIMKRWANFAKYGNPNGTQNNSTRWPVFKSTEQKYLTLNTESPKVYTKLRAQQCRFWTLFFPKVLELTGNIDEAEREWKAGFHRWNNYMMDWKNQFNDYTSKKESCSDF
pIC50: −log10 of the molar value.
Would you please tag the item Fulfilled when its pIC50 is 7 or above, and Not fulfilled when it is below?

Has `O=C(NCCCCCNc1c2c(nc3ccccc13)CCCC2)C1CCN(C(=O)c2ccccc2)CC1` a recorded pIC50 greater than or equal to 7?
Fulfilled

Can `COc1ccccc1C(=O)N1CCC(C(=O)NCCCCCNc2c3c(nc4ccccc24)CCCC3)CC1` be said to have pIC50 at or above 7?
Fulfilled

Quick check, pIC50 >= 7? `O=C(NCCCCCNc1c2c(nc3ccccc13)CCCC2)C1CCN(C(=O)c2ccccn2)CC1`
Not fulfilled

Quick check: does `COc1ccc(C(=O)N2CCC(C(=O)NCCCCCNc3c4c(nc5ccccc35)CCCC4)CC2)cc1` have pIC50 greater than or equal to 7?
Not fulfilled

Sourced from ChEMBL document CHEMBL5335825
